Tested on: NCI-H1944;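 note: CTB read-out in 384-well plates, triplicate wells, NPI normalised per plate against 1 µM phenylarsine oxide (0) and 0.1% DMSO (1) controls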
TEST NAME: normalised cell viability (NPI; 0 = phenylarsine oxide control, 1 = DMSO control) (fraction of DMSO control); NCI-H1944 is a non-small cell lung cancer line; higher = more viable cells (less compound toxicity)
CONDITION DETAILS: glucocorticoid arm: hydrocortisone 2.75 uM co-treatment; compound 1 µM; 6 days
Where a name gives a salt, the structure may show the parent alone. The full ranking holds about 1,900 compounds; the median of “normalised cell viability (NPI; 0 = phenylarsine oxide control, 1 = DMSO control)” is about 1, and the lowest 2% start at about 0.039. Shown is part of a subset that was picked to be rich in the lowest values.
METRIC: normalised cell viability
Write the number on its own, no unit after it.

Input line: Which value of normalised cell viability has been reported for OC[C@H]1O[C@@H](n2cnc3c(Nc4ccccc4)ncnc32)[C@H](O)[C@@H]1O in the records?
Output line: 1

Input line: Same thing, different molecule: O=C(O)c1cc(O)c2ccc(Cl)cc2n1
Output line: 1

Input line: Same thing, different molecule: Cc1cc(N2CCOCC2)cc2[nH]c(-c3c(NCC(O)c4cccc(Cl)c4)cc[nH]c3=O)nc12 (configuration not stated)
Output line: 0.277

Input line: Same thing, different molecule: N[C@@H](Cc1c[nH]c2ccccc12)C(=O)O
Output line: 1.01

Input line: Same thing, different molecule: CN(CC[C@@H](Oc1ccc(C(F)(F)F)cc1)c1ccccc1)CC(=O)[O-].[Li+]
Output line: 0.992

Input line: Same thing, different molecule: CCc1cccc(N(C)C(=N)Nc2cccc3ccccc23)c1
Output line: 0.999

Input line: Same thing, different molecule: C[C@]12CC[C@@H]3c4ccc(O)cc4CC[C@H]3[C@@H]1C[C@@H](O)[C@@H]2O
Output line: 1.02

Input line: Same thing, different molecule: CC(C)(C)c1ccc(C(O)CCCN2CCC(C(O)(c3ccccc3)c3ccccc3)CC2)cc1 (configuration not stated)
Output line: 0.997

Input line: Same thing, different molecule: O=C(/C=C/c1ccc2ccccc2n1)c1ccncc1
Output line: 1.01

Input line: Same thing, different molecule: CN(C)CCC(c1ccc(Br)cc1)c1ccccn1 (single isomer, unassigned; (+)) [(+)-Brompheniramine maleate]
Output line: 1.01

Input line: Same thing, different molecule: C=C(C)C(CC=C(C)C)CC12CC(CC=C(C)C)C(C)(C)C(CC=C(C)C)(C(=O)C(=C(O)c3ccc(O)c(O)c3)C1=O)C2=O (configuration not stated)
Output line: 1

Input line: Same thing, different molecule: O=C(/C=C/c1ccc(CN(CCO)CCc2c[nH]c3ccccc23)cc1)NO
Output line: 0.00706

Input line: Same thing, different molecule: OC(CCN1CCCCC1)(c1ccccc1)C1CCCCC1 (racemic) [DL-Trihexyphenidyl hydrochloride]
Output line: 1

Input line: Same thing, different molecule: Cn1ncnc1[C@H]1c2n[nH]c(=O)c3cc(F)cc(c23)N[C@@H]1c1ccc(F)cc1
Output line: 0.996

Input line: Same thing, different molecule: COc1cc2c(cc1C(F)(F)F)N(C(=O)Nc1cc(F)cc(-c3cccnc3)c1)CC2
Output line: 0.994

Input line: Same thing, different molecule: Cc1[nH]c2ccccc2c1CCNCc1ccc(/C=C/C(=O)NO)cc1
Output line: 0.00703

Input line: Same thing, different molecule: C[C@]12CC[C@@H]3c4ccc(O)cc4CC[C@H]3[C@@H]1CC[C@@H]2O
Output line: 0.993
